TARGET OF ASSAY: MDM2 (Homo sapiens, UniProt Q00987)
Sequence (Q00987 whole entry): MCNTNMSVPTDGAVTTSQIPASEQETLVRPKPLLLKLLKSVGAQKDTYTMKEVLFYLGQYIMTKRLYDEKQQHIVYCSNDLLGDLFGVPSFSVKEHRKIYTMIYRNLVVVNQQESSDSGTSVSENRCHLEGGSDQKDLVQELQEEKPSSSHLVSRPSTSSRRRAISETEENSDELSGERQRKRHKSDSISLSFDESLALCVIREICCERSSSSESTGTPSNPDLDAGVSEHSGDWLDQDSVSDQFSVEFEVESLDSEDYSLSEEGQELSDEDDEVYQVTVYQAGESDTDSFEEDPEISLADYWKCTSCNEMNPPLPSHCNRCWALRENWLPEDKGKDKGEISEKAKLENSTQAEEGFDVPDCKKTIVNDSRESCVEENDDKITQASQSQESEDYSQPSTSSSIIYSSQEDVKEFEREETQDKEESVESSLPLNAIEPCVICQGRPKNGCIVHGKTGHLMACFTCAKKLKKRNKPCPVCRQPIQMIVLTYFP
ASSAY DETAILS: MDM2 binding screen: displacement of fluorescent p53 peptide probe FP53 (fluorescence polarization)
RECORDED CONDITIONS: 10 µM macrocycle concentration; crude acylated macrocycle (scaffold Mpa-AA1-AA2-AA3 x carboxylic acid); p53-based fluorescent peptide, human MDM2
Numbered stars: 1 amine (or outer) side, 2 acyl side, 3 side chain; on linkers, the order of the positions; unused ones are H or OH. Bridge positions count the residues as written; N and C are the ends. Square brackets hold non-standard residues; d marks the D form. Peptide text beside a SMILES is read from it. * marks the point of attachment. Cyclopropanecarbonyl(1-CN) = N#CC1(C(=O)*)CC1; Pyrazinoyl(5-oxo-4H) = O=C(c1c[nH]c(=O)cn1)*; Benzoyl(3-CF3) = O=C(c1cccc(C(F)(F)F)c1)*; Benzoyl(3,5-F2) = O=C(c1cc(F)cc(F)c1)*; Acetyl(4-pyridyl) = O=C(Cc1ccncc1)*; Cysteamide = C(CS[*:3])N[*:1]; Ethoxyacetyl = CCOCC(=O)*; 2Furoyl = O=C(c1ccco1)*; Dap = NC[C@H](N)C(=O)O; Bz = O=C(c1ccccc1)*; Mpa = O=C(O)CCS
Parameter threshold = 0.04. Response is True when fraction fluorescent probe displaced meets or exceeds it, else False.

COMPOUND	ASSIGNED CATEGORY
N#CC1(C(=O)NC[C@@H]2NC(=O)[C@@H]3CCCN3C(=O)CCSSCCNC(=O)[C@H](Cc3ccccc3)NC2=O)CC1 [X-B1-D3-F + A56] ([Mpa]P[Dap](Cyclopropanecarbonyl(1-CN))F-Cysteamide; disulfide 1-C)	False
O=C(Cc1ccncc1)NC[C@@H]1NC(=O)[C@@H]2CCCN2C(=O)CCSSCCNC(=O)[C@H](Cc2ccccc2)NC1=O [X-B1-D3-F + A70] ([Mpa]P[Dap](Acetyl(4-pyridyl))F-Cysteamide; disulfide 1-C)	False
O=C(NC[C@@H]1NC(=O)[C@@H]2CCCN2C(=O)CCSSCCNC(=O)[C@H](Cc2c[nH]c3ccccc23)NC1=O)c1ccco1 [X-B1-D3-W + A16] ([Mpa]P[Dap](2Furoyl)W-Cysteamide; disulfide 1-C)	True
O=C(NC[C@@H]1NC(=O)[C@@H]2CCCN2C(=O)CCSSCCNC(=O)[C@H](Cc2c[nH]c3ccccc23)NC1=O)c1cccc(C(F)(F)F)c1 [X-B1-D3-W + A18] ([Mpa]P[Dap](Benzoyl(3-CF3))W-Cysteamide; disulfide 1-C)	False
O=C(NC[C@@H]1NC(=O)[C@@H]2CCCN2C(=O)CCSSCCNC(=O)[C@H](Cc2ccccc2)NC1=O)c1c[nH]c(=O)cn1 [X-B1-D3-F + A9] ([Mpa]P[Dap](Pyrazinoyl(5-oxo-4H))F-Cysteamide; disulfide 1-C)	False
O=C(NC[C@@H]1NC(=O)[C@@H]2CCCN2C(=O)CCSSCCNC(=O)[C@H](Cc2ccccc2)NC1=O)c1cc(F)cc(F)c1 [X-B1-D3-F + A23] ([Mpa]P[Dap](Benzoyl(3,5-F2))F-Cysteamide; disulfide 1-C)	False
CCOCC(=O)NC[C@@H]1NC(=O)[C@@H]2CCCN2C(=O)CCSSCCNC(=O)[C@H](Cc2ccccc2)NC1=O [X-B1-D3-F + A104] ([Mpa]P[Dap](Ethoxyacetyl)F-Cysteamide; disulfide 1-C)	True
O=C(NC[C@@H]1NC(=O)[C@@H]2CCCN2C(=O)CCSSCCNC(=O)[C@H](Cc2c[nH]c3ccccc23)NC1=O)c1ccccc1 [X-B1-D3-W + A1] ([Mpa]P[Dap](Bz)W-Cysteamide; disulfide 1-C)	False
